experimental.target: Cytochrome P450 1A2 (Homo sapiens)
assay.protocol: Cytochrome panel assay with activity outcomes
settings: recombinant CYP, pro-luciferin dealkylation, luminescence, p450-cyp1a2; series mostly up to 57.1 µM
Hit rate of the full screen: of about 16,000 compounds, about 5,700 (36%) were called active. Another 24% or so got no clear call; they are omitted. Calls come from the whole dose curve; as a rule, active = well fitted curve in the direction sought with a large enough effect; inconclusive = small, poorly fitted or top-dose-only effect, or effect the other way; inactive = no such curve, though single readings can be large or run the other way. The list shows a part of the results.
Use one of these outcomes when replying: T (active), F (inactive)

These solved cases illustrate the format of a correct answer.
INSERT INTO results (compound, answer_label) VALUES
  ('CCn1c(SC)nnc1C1CCN(S(=O)(=O)c2ccc(OC)cc2)CC1', 'F'),
  ('CCCn1nc2cc(C(=O)NCCc3ccc(C)cc3)ccc2c1OCC', 'F'),
  ('CCCn1nc2cc(C(=O)NC3CCCc4ccccc43)ccc2c1OCC (stereo unspecified)', 'F'),
  ('CN(C)c1ncc2nc(-c3ccc(F)cc3)c(=O)n(C[C@H]3CCCO3)c2n1', 'T'),
  ('COc1ccc(S(=O)(=O)N2CCC(N3CCCCC3)CC2)cc1', 'F');

Alright, here's another compound for you.
### Prompt Could you please tell me the result logged for `Cn1c(C(F)(F)F)nc2c(=O)oc3ccccc3c21` in this assay?
### Response T
